Measured values drawn from PubChem BioAssay for this set.

normalised cell number values by entry
- Assay protocol: differential killing of epithelial or mesenchymal cells, primary screen, imaging, PC-3E GFP, TEM4-18 mCherry, co-culture (AID 1345086);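 note: cells exposed to compound for 72 h before imaging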
- Condition description: imaging cell counts, measured here: mesenchymal TEM4-18 mCherry cell survival, at 1 µM
// print number alone

> print(dat)
                                   compound            readout.type  meas.value
1   Cc1c(F)c(F)cc2c(=O)n(N)c(=O)n(C3CC3)c12  normalised cell number        0.71
2  C[C@H](CCC(=O)O)[C@H]1CCC2C3C(=O)CC4CC(=O)CC[C@]4(C)C3CC(=O)[C@@]21C (stereo partly specified)  normalised cell number        1.47
3  OCC1O[C@H](O[C@H]2OC(CO)[C@@H](O)[C@@H](O)C2O)C(O)[C@H](O)[C@@H]1O (stereo partly specified)  normalised cell number        1.13

// sample O=c1cc(-c2ccc(O)cc2)oc2ccc(O)cc12 , its normalised cell number was 0.97

Per the record, COc1cc(C)c(Oc2cc(C)cc(O)c2O)c(O)c1 has normalised cell number of 1.15

Just so you know, measured normalised cell number for O=C(O)c1ccccc1 came out at 1.35
